- assayText: Solubility of HPPA-Me
- Format: physicochemical
- measurementSetup: organic solvent or mixture; in carbon tetrachloride; read-out: Solubility (HPPA-ME)
reportedMetric: solubility (mg/mL)

- molecule: "COC(=O)C(C)Oc1ccc(O)cc1 (racemic) [HPPA-ME]"
  reportedMetric: "solubility"
  reportedResult: 33

###

- assayText: Solubility of HPPA-Me
- Format: physicochemical
- measurementSetup: organic solvent or mixture; in cumene; read-out: Solubility (HPPA-ME)
reportedMetric: solubility

- molecule: "COC(=O)C(C)Oc1ccc(O)cc1 (racemic)"
  reportedResult: "20 mg/mL"

###

- assayText: Conversion of ketoprofen esters in organic solvent/oleic acid media
- Type: biochemical
- measurementSetup: KPEG; as E212

- molecule: "CC(C)CC(C)(C)C"
  % ee S-acid / %: 97
- molecule: "CC(Cl)(Cl)Cl"
  % ee S-acid / %: 0
- molecule: "ClC(Cl)=C(Cl)Cl"
  % ee S-acid / %: 0
- molecule: "C1CCCCC1"
  % ee S-acid / %: 83
- molecule: "c1ccc2c(c1)CCCC2 [1,2,3,4-Tetrahydronapthalene]"
  % ee S-acid / %: 1
- molecule: "C1=CCCCCCC1"
  % ee S-acid / %: 92
- molecule: "C1=CCCCC1"
  % ee S-acid / %: 52
